Assay: AE maximal score at Adenosine A1 receptor
reported property: pEC50
In plain terms, pEC50 is the concentration in mol/L turned into minus its base-10 logarithm.

Reported pEC50 of `CC(=O)Oc1ccc2c(c1)CCc1sc(N)nc1-2` : 3.80

pEC50 recorded for this compound, `COc1ccc2c(c1)CCc1sc(N)nc1-2` , is 8.70

Source of measurements: BindingDB's records for doi:10.1016/s0960-894x(02)00236-6
